Assay: ATG_EGR_CIS: Attagene CIS-FACTORIAL HepG2 Assay for human Early Growth Response 1 (EGR1) (AID 2282938)
Details: HepG2 Attagene CIS-FACTORIAL EGR reporter mRNA; actives raise or lower the signal
Calls of active or inactive are those of the source. Rule for the calls: active = hit-call score of the fitted dose curve at least 0.9, where 1 is the maximum; inactive = score below 0.9.
Labels: class 1 = active, class 0 = inactive

>>> df
                                    compound  classification
 0                               CCNc1ccccc1         class 0
 1  Nc1nc2ncc(CNc3ccc(C(=O)N[C@@H](CCC(=O)O)C(=O)O)cc3)nc2c(=O)[nH]1         class 0
 2   Cn1cnc([N+](=O)[O-])c1Sc1ncnc2nc[nH]c12         class 0
 3  CC[C@H]1CC[C@H](NCc2cc3c(cc2OC)[C@H]2C[C@H]2C(=O)N3C)[C@H](c2ccccc2)N1         class 1
 4  CC(O)CN(CCN(CC(C)O)CC(C)O)CC(C)O (stereo unspecified)         class 0
 5  CCOC(=O)COc1ccc2c(c1)CC(NCC(O)c1cccc(Cl)c1)CC2 (stereo unspecified)         class 0
 6  CCCN(C1CCN(C(=O)C2CCNCC2)CC1)[C@@H]1CCc2ccc(OC)cc2C1         class 1
 7  CC(C)CCCCCCCOC(=O)CCCCC(=O)OCCCCCCCC(C)C         class 0
 8     O=P(OC(CCl)CCl)(OC(CCl)CCl)OC(CCl)CCl         class 1
 9  O=C1OC(=O)C2C3C=CC(C3)C12 (stereo unspecified)         class 0
10                              COCCOCCOCCOC         class 0

Where do these numbers come from? They come from PubChem BioAssay (EPA / NIEHS).
